assay: qHTS assay to identify small molecule that activate the aryl hydrocarbon receptor (AhR) signaling pathway - cell viability counter screen (AID 743086); conditions: HepG2-AhR-luc viability, CellTiter-Fluor, 24 h; series mostly up to 70.3 µM;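 note: HepG2 liver cells carrying the AhR DRE luciferase reporter; nearly all actives have a fitted effect of over 45% in size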
Inconclusive results are not listed. Active and inactive are the calls of the source. Calls come from the whole dose curve; as a rule, active = well fitted cell-killing curve with a large enough effect in the repeat runs; inconclusive = weak or mixed curves, or effect the other way; inactive = flat fitted curve, though single readings scatter.
ASSAY_READOUT: outcome

Below, each entry is followed by its recorded outcome result.
CC(C)OC(=O)Nc1ccccc1
inactive
CCC(C)(CC)c1cc(NC(=O)c2c(OC)cccc2OC)on1
inactive
CN(C)[C@@H]1C(=O)C(C(N)=O)=C(O)[C@@]2(O)C(=O)C3=C(O)c4c(O)cccc4[C@@](C)(O)[C@H]3C[C@@H]12
inactive
O=c1ccc(=O)[nH][nH]1
inactive
BrCCBr
inactive

Need outcome for each of these compounds.
1. CC(C)C#N
2. CC(C)(Cl)Cl
3. CCN(CC)CCO
4. CCCCCCCCCl

Output line:
1: inactive; 2: inactive; 3: inactive; 4: inactive

outcome reported for this compound CCCN(CCC)c1c([N+](=O)[O-])cc(C(F)(F)F)cc1[N+](=O)[O-] : inactive
